Listing of entries alongside the reported IC50.
system tested: human wildtype CFTR (Homo sapiens)
Construct: expressed in transfected cells; host or cells: Fischer rat thyroid (FRT) cells
Sequence (P13569 whole entry): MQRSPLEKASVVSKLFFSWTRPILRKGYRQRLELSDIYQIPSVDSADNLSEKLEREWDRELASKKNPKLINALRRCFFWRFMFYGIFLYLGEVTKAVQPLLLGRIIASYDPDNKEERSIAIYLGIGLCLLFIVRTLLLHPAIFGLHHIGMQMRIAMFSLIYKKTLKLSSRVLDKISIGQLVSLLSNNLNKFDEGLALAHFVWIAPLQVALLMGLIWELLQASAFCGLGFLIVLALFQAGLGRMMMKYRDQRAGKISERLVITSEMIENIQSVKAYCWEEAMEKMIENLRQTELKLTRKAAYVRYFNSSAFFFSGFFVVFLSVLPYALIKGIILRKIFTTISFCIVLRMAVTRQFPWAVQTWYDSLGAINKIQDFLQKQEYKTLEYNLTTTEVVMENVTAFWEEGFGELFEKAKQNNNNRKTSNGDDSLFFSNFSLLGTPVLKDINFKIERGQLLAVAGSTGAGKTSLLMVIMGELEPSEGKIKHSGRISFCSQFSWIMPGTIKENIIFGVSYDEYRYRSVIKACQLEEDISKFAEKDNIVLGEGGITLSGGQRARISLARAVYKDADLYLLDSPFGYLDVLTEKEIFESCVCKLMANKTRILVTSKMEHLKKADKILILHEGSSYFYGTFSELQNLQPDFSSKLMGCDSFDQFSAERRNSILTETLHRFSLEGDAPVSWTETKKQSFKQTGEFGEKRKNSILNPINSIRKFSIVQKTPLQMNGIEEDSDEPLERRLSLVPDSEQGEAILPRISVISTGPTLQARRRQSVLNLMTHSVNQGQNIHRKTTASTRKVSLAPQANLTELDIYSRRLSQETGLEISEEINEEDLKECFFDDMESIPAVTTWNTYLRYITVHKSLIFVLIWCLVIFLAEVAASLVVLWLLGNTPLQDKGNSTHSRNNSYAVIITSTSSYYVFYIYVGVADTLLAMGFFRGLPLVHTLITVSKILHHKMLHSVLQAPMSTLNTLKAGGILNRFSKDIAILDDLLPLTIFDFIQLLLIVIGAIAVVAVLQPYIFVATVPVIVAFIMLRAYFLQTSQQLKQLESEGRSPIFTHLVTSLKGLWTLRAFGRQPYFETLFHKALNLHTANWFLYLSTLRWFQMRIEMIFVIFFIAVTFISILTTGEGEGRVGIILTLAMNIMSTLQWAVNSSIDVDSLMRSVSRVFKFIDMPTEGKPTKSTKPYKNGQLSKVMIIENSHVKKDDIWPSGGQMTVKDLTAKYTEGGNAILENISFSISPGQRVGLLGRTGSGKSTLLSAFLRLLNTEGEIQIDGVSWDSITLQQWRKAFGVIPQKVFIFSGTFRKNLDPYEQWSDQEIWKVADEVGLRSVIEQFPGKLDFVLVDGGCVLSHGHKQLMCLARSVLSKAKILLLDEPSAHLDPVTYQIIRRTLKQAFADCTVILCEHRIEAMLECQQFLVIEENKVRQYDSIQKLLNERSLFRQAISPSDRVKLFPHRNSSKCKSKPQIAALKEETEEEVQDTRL
method notes: Fluorescence platereader assay of CFTR-mediated iodide influx (YFP quenching) in FRT cells
Format: cell-based
run parameters: apparent IC50 from concentration-inhibition data, fluorescence platereader assay

{"compound": "Cc1ccc(C2Nc3cc(C)c(C)cc3-n3c(-c4ccccc4)c4c(=O)n(C)c(=O)n(C)c4c32)o1 (stereo not shown)", "IC50 [µM]": 0.8}
{"compound": "COc1cccc(C2Nc3ccccc3-n3c(-c4ccccc4F)c4c(=O)n(C)c(=O)n(C)c4c32)c1 (stereo not shown)", "IC50 [µM]": 2}
{"compound": "Cc1cccc(C2Nc3ccccc3-n3c(-c4ccccc4C)c4c(=O)n(C)c(=O)n(C)c4c32)c1 (stereo not shown)", "IC50 [µM]": 3}
{"compound": "COc1cc(O)ccc1C1Nc2ccccc2-n2c(-c3ccccc3)c3c(=O)n(C)c(=O)n(C)c3c21 (stereo not shown)", "IC50 [µM]": 100}

----------
system tested: human wildtype CFTR (Homo sapiens)
Construct: expressed in transfected cells; host or cells: Fischer rat thyroid (FRT) cells
method notes: Fluorescence platereader assay of CFTR-mediated iodide influx (YFP quenching) in FRT cells
Assay type: cell-based
run parameters: FRT; Table 2; screening, 25 μM; read-out: % Inhibition at 25 μM
Method: A. Cell lines and compounds—Fischer rat thyroid (FRT) cells co-expressing human wildtype CFTR and the halide indicator YFP-H148Q/1152L were generated as described (see, e.g., Ma et al., J. Clin. Invest. 110:1651-1658 (2002)). […] B. Compound Screening—Assays were performed using an automated screening platform (Beckman) equipped with FLUOStar fluorescence platereaders (BMG Lab Technologies, Offenburg, Germany) as described (see Ma et al., supra). […]
Listing of entries alongside the reported inhibition at 25 µM.

{"compound": "Cc1ccccc1-c1c2c(=O)n(C)c(=O)n(C)c2c2n1-c1ccccc1NC2c1ccc(O)cc1 (centres unmarked)", "inhibition at 25 µM": "84%"}
{"compound": "COc1cc(O)ccc1C1Nc2ccccc2-n2c(-c3cccc(C)c3)c3c(=O)n(C)c(=O)n(C)c3c21 (centres unmarked)", "inhibition at 25 µM": "55%"}
{"compound": "Cc1ccccc1-c1c2c(=O)n(C)c(=O)n(C)c2c2n1-c1ccccc1NC2c1cccc(F)c1 (centres unmarked)", "inhibition at 25 µM": "90%"}
{"compound": "COc1cccc(C2Nc3ccccc3-n3c(-c4ccccc4C)c4c(=O)n(C)c(=O)n(C)c4c32)c1 (centres unmarked)", "inhibition at 25 µM": "> 95%"}
{"compound": "Cc1ccc(-c2c3c(=O)n(C)c(=O)n(C)c3c3n2-c2ccccc2NC3c2cccs2)cc1 (centres unmarked)", "inhibition at 25 µM": "35%"}
{"compound": "COc1ccc(C2Nc3ccccc3-n3c(-c4ccccc4F)c4c(=O)n(C)c(=O)n(C)c4c32)cc1 (centres unmarked)", "inhibition at 25 µM": "33%"}
{"compound": "COc1ccc(-c2c3c(=O)n(C)c(=O)n(C)c3c3n2-c2ccccc2NC3c2cccc(F)c2)cc1 (centres unmarked)", "inhibition at 25 µM": "37%"}
{"compound": "Cc1ccccc1-c1c2c(=O)n(C)c(=O)n(C)c2c2n1-c1ccccc1NC2c1ccccc1F (centres unmarked)", "inhibition at 25 µM": "81%"}
